All values here come from patent US5792767A.

- Target Entity: α-1A adrenoceptor (rat vas deferens) (Rattus norvegicus)
- Construct: PE-induced contraction of rat vas deferens; from tissue; host or cells: isolated rat vas deferens
- Sequence (P43140 1-466): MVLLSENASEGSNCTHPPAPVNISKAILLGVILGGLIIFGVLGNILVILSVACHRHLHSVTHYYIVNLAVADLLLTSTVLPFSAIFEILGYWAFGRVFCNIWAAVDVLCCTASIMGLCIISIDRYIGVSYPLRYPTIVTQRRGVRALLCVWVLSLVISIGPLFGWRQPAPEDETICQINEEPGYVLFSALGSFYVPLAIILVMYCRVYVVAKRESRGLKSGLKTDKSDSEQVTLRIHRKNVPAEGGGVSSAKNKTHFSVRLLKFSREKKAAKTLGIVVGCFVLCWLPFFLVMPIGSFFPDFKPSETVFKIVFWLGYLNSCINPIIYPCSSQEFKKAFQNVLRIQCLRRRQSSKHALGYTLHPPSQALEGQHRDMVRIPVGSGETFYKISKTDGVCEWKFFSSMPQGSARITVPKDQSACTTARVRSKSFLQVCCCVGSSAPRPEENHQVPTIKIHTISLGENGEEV
- Assay Info: Functional antagonism of phenylephrine-induced contraction of rat vas deferens
- Format: cell-based
- Experimental Context: vs phenylephrine-induced contraction, Schild plot; read-out: pA2 Rat Vas Deferens [α-1A] (converted)
Counter-ions that a name gives are not always drawn.
Readout Type: Kb (nM)
The reply should be a number in nM, with the unit left off.

Guide cases for Kb, answers given:
1. COc1cc2ncn(CCN3C[C@@H]4CCc5c(OC)cccc5[C@@H]4C3)c(=O)c2cc1OC (relative stereo) [Example 33, dihydrochloride]: 1.12
2. COc1cccc2c1CC[C@H]1CN(CCn3c(=O)[nH]c4c(OC)cccc4c3=O)C[C@@H]21 (relative stereo) [Example 9, hydrochloride]: 2.4

Continue with the molecule presented below.
Entry COc1cccc2c1CC[C@H]1CN(CCn3c(=O)[nH]c4ccsc4c3=O)C[C@@H]21 (relative stereo) [Example 5, hydrochloride] , Kb reported as 6.46

----------
# Kb annotations
- Target Entity: α-1A adrenoceptor (dog prostate)
- Construct: from tissue; host or cells: canine prostate strips
- Sequence (P35348 whole entry): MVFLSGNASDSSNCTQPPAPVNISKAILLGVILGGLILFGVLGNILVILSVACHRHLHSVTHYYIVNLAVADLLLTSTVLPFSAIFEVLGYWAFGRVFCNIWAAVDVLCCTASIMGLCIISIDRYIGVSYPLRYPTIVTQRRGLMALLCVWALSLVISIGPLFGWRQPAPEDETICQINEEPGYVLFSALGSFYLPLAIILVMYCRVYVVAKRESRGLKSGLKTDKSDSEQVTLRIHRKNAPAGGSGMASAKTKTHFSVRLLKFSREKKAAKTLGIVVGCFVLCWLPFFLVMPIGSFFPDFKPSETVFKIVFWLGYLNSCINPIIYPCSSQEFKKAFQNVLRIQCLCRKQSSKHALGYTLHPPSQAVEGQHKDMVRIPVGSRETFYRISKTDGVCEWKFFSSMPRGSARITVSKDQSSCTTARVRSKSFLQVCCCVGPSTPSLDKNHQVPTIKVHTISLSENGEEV
- Assay Info: Functional antagonism of phenylephrine-induced contraction of canine prostate strips
- Type: cell-based, dog (canine)
- Experimental Context: vs phenylephrine-induced contraction, Schild plot; read-out: pA2 Dog Prostate [α-1A] (converted)
Structures can show the parent of a compound that is named as a salt.
The reply should be a number in nM, with the unit left off.

Guide cases for Kb, answers given:
1. COc1cccc2c1CC[C@H]1CN(CCn3cnc4c(C)c(C)ccc4c3=O)C[C@@H]21 [Example 57, dihydrochloride]: 7.24
2. COc1ccc2[nH]c(=O)n(CCN3C[C@@H]4CCc5c(OC)cccc5[C@@H]4C3)c(=O)c2c1 (relative stereo) [Example 17, hydrochloride]: 1.15

Continue with the compound presented below.
Entry COc1cc2[nH]c(=O)n(CCCCN3C[C@@H]4CCc5cccc(OC)c5[C@@H]4C3)c(=O)c2cc1OC [Example 67, hydrochloride] , Kb reported as 4.68

----------
- Target Entity: α-1A adrenoceptor (dog prostate)
- Construct: from tissue; host or cells: canine prostate strips
- Assay Info: Functional antagonism of phenylephrine-induced contraction of canine prostate strips
- Assay type: cell-based, dog (canine)
- Experimental Context: vs phenylephrine-induced contraction, Schild plot; read-out: pA2 Dog Prostate [α-1A] (converted)
Structures can show the parent of a compound that is named as a salt.
# Kb annotations
Entry format: amount then unit.

Entry COc1cccc2c1CC[C@H]1CN(CCn3c(=O)[nH]c4nccnc4c3=O)C[C@@H]21 [Example 87, hydrochloride] , Kb reported as 1.29 nM

Entry CCOC(=O)c1c[nH]c2[nH]c(=O)n(CCN3C[C@@H]4CCc5c(OC)cccc5[C@@H]4C3)c(=O)c12 [Example 61, hydrochloride] , Kb reported as 2.29 nM

Entry COc1cccc2c1CC[C@H]1CN(CCn3c(=O)[nH]c4cc(F)ccc4c3=O)C[C@@H]21 (relative stereo) [Example 25, hydrochloride] , Kb reported as 0.676 nM
